Entry source: a melting point compilation (Tetko et al.; mined from patent text by program, amines drawn as free bases though some values may be those of a salt)

Measured Property: melting point

[
  {
    "Compound": "CN1CCc2cccc3c4c(n(c23)CC1)CCSC4",
    "melting point": "123 to 125 °C"
  }
]

Task item: Any idea what its melting point is? The compound is CCOC(=O)CCCC(=NO)c1ccccc1
Reply: 28 to 30 °C

Task item: Query: melting point; subject: COc1cc(O)cc2c1C(Br)=C(c1ccc(O)cc1)C2=O
Reply: 210 °C

Task item: Given COCc1nc2c(NCc3c(C)cccc3C)cc(C(=O)NCCO)cc2n1C , state its recorded melting point.
Reply: 186 to 187 °C

Task item: Name the recorded melting point for C#CCOc1ccc(/C=C/c2nc3ccccc3c(=O)o2)cc1OC .
Reply: 177 to 178 °C

Task item: // returns reported melting point for input CCN(CC)CCCNC(=O)Cn1c(-c2ccc(Cl)cc2)nc2cccnc21
Reply: 172 to 174 °C

Task item: Please give the measured melting point for this compound: COc1cc2ncnc(N3CCN(C(=O)NCc4ccsc4)CC3)c2cc1OC
Reply: 178 to 179 °C

Task item: Could you share which melting point value was measured for COc1cc(OC)c2c(c1)OC(C(C)(C)C#N)CC2=O (stereo not drawn) ?
Reply: 170 °C
